- Tested on: NCI-H23 lung
- assay-notes: NCI-60 one-dose screen, 48 h (100 = growth as untreated, 0 = no growth, -100 = all killed)
- study-conditions: 10 µM unless noted
Compounds without any hit were thinned out: in the full panel of roughly 83,000, 20% have a hit.
Would you please tag the item 1 when its growth is 50% or above, and 0 when it is below?

- molecule: "CC(C)CCC[C@@H](C)[C@H]1CC[C@H]2[C@@H]3CC=C4C[C@@H](C(C(=O)O)C(=O)O)CC[C@]4(C)[C@H]3CC[C@]12C"
  target-under-test: "NCI-H23 lung"
  label-value: 0
- molecule: "CCN1C(=O)N(CC)C2C1NN=c1s/c(=C\\c3cccc([N+](=O)[O-])c3)c(=O)n12 (configuration not stated)"
  target-under-test: "NCI-H23 lung"
  label-value: 0
- molecule: "COC(=O)CNC(=O)[C@H](Cc1ccccc1)NCc1ccncc1"
  target-under-test: "NCI-H23 lung"
  label-value: 1
- molecule: "CCOC(=O)c1cc(C(=O)c2cc(OC)c(OC)c(OC)c2)n2ccc(-c3ccncc3)cc12"
  target-under-test: "NCI-H23 lung"
  label-value: 1
- molecule: "COC(=O)c1cc(-c2ccc(OC)cc2)[nH]c1N/N=C/c1c(Cl)cccc1Cl"
  target-under-test: "NCI-H23 lung"
  label-value: 0
- molecule: "O=C(Cn1c(=O)sc2nc3ccccc3nc21)Nc1ncc(Cc2cccc(Cl)c2Cl)s1"
  target-under-test: "NCI-H23 lung"
  label-value: 1
- molecule: "Oc1ccc(CN2CCC(N3CCCCC3)CC2)c2cccnc12"
  target-under-test: "NCI-H23 lung"
  label-value: 0
- molecule: "Fc1ccc(Nc2nc3nonc3nc2Nc2ccc(I)cc2)cc1"
  target-under-test: "NCI-H23 lung"
  label-value: 0
- molecule: "O=C(c1ccc(-c2ccccc2)cc1)c1ccc([N+](=O)[O-])cc1"
  target-under-test: "NCI-H23 lung"
  label-value: 1
- molecule: "CCC(=C(c1ccc(OCCN2CCCC2)cc1)c1ccc(OCCN2CCCC2)cc1)c1ccc(Cl)cc1"
  target-under-test: "NCI-H23 lung"
  label-value: 1
- molecule: "CN(C)c1ccc(Nc2cc(-c3cccc(OC(F)(F)F)c3)nc3ccc(N4CCCC4)cc23)cc1"
  target-under-test: "NCI-H23 lung"
  label-value: 0
- molecule: "Cn1ccnc1C(=O)C(=O)Nc1ccc(CC(=O)Nc2ccccc2)cc1"
  target-under-test: "NCI-H23 lung"
  label-value: 1
- molecule: "C/C(=C(/c1ccc(Cl)cc1)c1ccc(OCCN2CCCC2)cc1)c1ccc(Cl)cc1"
  target-under-test: "NCI-H23 lung"
  label-value: 1
- molecule: "COC1=CC(c2ccc[nH]2)=N/C1=C\\c1[nH]c(C)c(C(=O)OCc2ccccc2)c1C"
  target-under-test: "NCI-H23 lung"
  label-value: 0
- molecule: "CC12CCC3c4ccccc4CCC3(CO1)C2 (configuration not stated)"
  target-under-test: "NCI-H23 lung"
  label-value: 1
- molecule: "Brc1ccc2[nH]cc(-c3nonc3-c3c[nH]c4ccccc34)c2c1"
  target-under-test: "NCI-H23 lung"
  label-value: 0
- molecule: "OCCNCCCOc1ccc2ncnc(Nc3ccc(Oc4cccc(C(F)(F)F)c4)c(Cl)c3)c2c1"
  target-under-test: "NCI-H23 lung"
  label-value: 1
- molecule: "O=C1NC(=O)c2c1c1c3ccccc3ccc1c1[nH]c3ccc(Br)cc3c21"
  target-under-test: "NCI-H23 lung"
  label-value: 0
- molecule: "CNC(=O)c1c(NC(=O)c2ccc(C(F)(F)F)cc2)sc2c1CCC(=O)C2"
  target-under-test: "NCI-H23 lung"
  label-value: 0
- molecule: "CN(C)c1ccc(/C=C/C(=O)c2ccc(-n3cc(CN4CCN(c5cc6c(cc5F)c(=O)c(C(=O)O)cn6C5CC5)CC4)nn3)cc2)cc1"
  target-under-test: "NCI-H23 lung"
  label-value: 1
- molecule: "N#Cc1c(-c2cccs2)cc(-c2cccnc2)[nH]c1=O"
  target-under-test: "NCI-H23 lung"
  label-value: 1
- molecule: "O=C1c2cccc(NCCN=Cc3cc(O)ccc3O)c2C(=O)c2c(NCCN=Cc3cc(O)ccc3O)cccc21"
  target-under-test: "NCI-H23 lung"
  label-value: 0
- molecule: "COc1ccccc1NC(=O)Cn1cc(CN2CCN(c3ccnc4cc(Cl)ccc34)CC2)nn1"
  target-under-test: "NCI-H23 lung"
  label-value: 1
- molecule: "COc1ccc(-c2nc(/C=C3\\SC(=NCc4ccccc4)NC3=O)c3ccccn23)cc1"
  target-under-test: "NCI-H23 lung"
  label-value: 0
- molecule: "O=S(=O)(NCCNc1cc(-c2c(-c3cccc(O)c3)nc3sccn23)ccn1)c1ccc(C(F)(F)F)cc1"
  target-under-test: "NCI-H23 lung"
  label-value: 1
- molecule: "Clc1ccc(Nc2nnc(COc3ccccc3)c3ccccc23)cc1"
  target-under-test: "NCI-H23 lung"
  label-value: 0
- molecule: "C=C1C(=O)O[C@H]2[C@H]1CC/C(COC(=O)NCc1cc[nH]c1)=C\\CC[C@@]1(C)O[C@@H]21"
  target-under-test: "NCI-H23 lung"
  label-value: 1
- molecule: "Cc1nnc(NC(=O)c2nc(S(=O)(=O)Cc3ccc(F)cc3)ncc2Cl)s1"
  target-under-test: "NCI-H23 lung"
  label-value: 1
- molecule: "CSc1nnc(-c2cnn3c2NC(c2ccccc2)C3)n1-c1ccc(C(F)(F)F)cc1 (configuration not stated)"
  target-under-test: "NCI-H23 lung"
  label-value: 1
- molecule: "C=C1CC[C@@H]2[C@](C)(COC(C)=O)[C@H](OC(C)=O)CC[C@@]2(C)[C@@H]1CC(Sc1ccccc1)C1=CCOC1=O (some centres not stated)"
  target-under-test: "NCI-H23 lung"
  label-value: 0
- molecule: "N#Cc1nn(-c2cc(=O)[nH]c3ccc(Cl)cc23)c(N)c1C#N"
  target-under-test: "NCI-H23 lung"
  label-value: 1
- molecule: "C[C@]12CC[C@@H]3c4ccc(O)c([N+](=O)[O-])c4CC[C@H]3[C@@H]1CCC2=O"
  target-under-test: "NCI-H23 lung"
  label-value: 1
- molecule: "C=C(CNCCc1ccc(O)cc1)[C@@H]1CC[C@]2(CO)CC[C@]3(C)[C@H](CC[C@@H]4[C@@]5(C)CCC(NCCO)C(C)(C)[C@@H]5CC[C@]43C)[C@@H]12 (some centres not stated)"
  target-under-test: "NCI-H23 lung"
  label-value: 0
- molecule: "Cn1c(=O)c2[nH]c(N/N=C/c3ccccc3Br)nc2n(C)c1=O"
  target-under-test: "NCI-H23 lung"
  label-value: 1
- molecule: "CN(C)CCNC(=O)c1cccc(-c2cnc3ccc(-c4ccc5c(c4)OCO5)nn23)c1"
  target-under-test: "NCI-H23 lung"
  label-value: 1
- molecule: "COC(=O)/C(CCC=C(C)C)=C1\\[C@@H](OC(C)=O)C[C@@]2(C)[C@H]1C[C@@H](O)[C@H]1[C@@]3(C)CC[C@H](NCCN)[C@@H](C)[C@@H]3CC[C@@]12C"
  target-under-test: "NCI-H23 lung"
  label-value: 1
- molecule: "O=C1C(Cl)=C(Oc2ccccc2)C(=O)c2ccccc21"
  target-under-test: "NCI-H23 lung"
  label-value: 1
